Data origin, for the record: ChEMBL document CHEMBL1125678

# test-target: Aldo-keto reductase family 1 member B1 (Bos taurus) (UniProt P16116)
# assay-notes: In vitro inhibition of aldose reductase in partially purified bovine lens preparation at a concentration of 10e-6 M.
# maps each entry to its inhibition
# number only, unit % dropped from output

// solved cases for inhibition follow
> print(dat)
                     record.smiles  readout.unit  val
1  CCc1nc2ccc(Br)cc2c(=O)n1CC(=O)O             %   57
2   Cc1nc2ccc(Br)cc2c(=O)n1CC(=O)O             %   63

### Prompt Find the measured inhibition: item Cc1nc2ccc(Br)cc2c(=S)n1CC(=O)O , target or system Aldo-keto reductase family 1 member B1 (Bos taurus) (UniProt P16116).
### Response 88

### Prompt Given the entry O=C(O)Cn1c(C(F)(F)F)nc2ccc(Br)cc2c1=O , what inhibition was observed with Aldo-keto reductase family 1 member B1 (Bos taurus) (UniProt P16116)?
### Response 45

* * *

# test-target: UniProtKB P16116
# assay-notes: in vitro inhibition of aldose reductase in partially purified bovine lens preparation at a concentration of 10e -6M.
measurement-label: inhibition (%)
Output spec: scalar in %, unitless text.

Consider the reported inhibition for these compounds:
> print(dat)
                              record.smiles  measurement.label  readout.unit  val
1  Cc1c(C)n(Cc2ccc(Cl)c(Cl)c2)c(=O)n(CC(=O)O)c1=O         inhibition             %   83
2   C=CCn1c(=O)n(CC(=O)O)c(=O)c2cc(Br)ccc21         inhibition             %   31
3  O=C(O)Cn1c(=O)c2cc(Br)ccc2n(Cc2ccc(C(F)(F)F)cc2)c1=O         inhibition             %   54

# ---- query compound ----
### Prompt Quick check: inhibition of O=C(O)Cn1c(=O)c2cc(Br)ccc2n(C(=O)c2ccccc2)c1=O ?
### Response 46

* * *

# test-target: Aldo-keto reductase family 1 member B1 (Bos taurus)
# assay-notes: In vitro inhibition of Aldose reductase in partially purified bovine lens preparation at a concentration of 10e -7M.
measurement-label: inhibition (%)
Your answer is read as %, so omit the unit and give the number.

Solved entries (count: 4):
> print(dat)
                              record.smiles  readout.unit  val
1  O=C(O)Cn1c2ccc([N+](=O)[O-])cc2c(=O)n1Cc1ccc(Br)cc1F             %   60
2    O=C(O)Cn1c2ccccc2c(=O)n1Cc1ccc(Br)cc1F             %   42
3  O=C(O)Cn1c2ccc([N+](=O)[O-])cc2c(=O)n1Cc1ccc(Cl)c(Cl)c1             %   41
4          Cc1nc2cc3ccccc3cc2c(=O)n1CC(=O)O             %   28

### Prompt // map O=C(O)Cn1c(=O)c2cc(Br)ccc2n(Cc2ccc(Br)cc2F)c1=O to recorded inhibition (system: Aldo-keto reductase family 1 member B1 (Bos taurus))
### Response 83

* * *

# test-target: Aldo-keto reductase family 1 member B1 (Bos taurus)
# assay-notes: In vitro inhibition of aldose reductase in partially purified bovine lens preparation at a concentration of 10e -7M.
measurement-label: inhibition (%)
The response must be a number in % with no trailing unit.

Past entries and their recorded results:
> print(dat)
                                   compound  readout.unit  val
1  O=C(O)CN1CN(Cc2ccc(Cl)c(Cl)c2)C(=O)c2cc(Cl)ccc21             %   87
2  Cc1sc2c(c1C)c(=O)n(CC(=O)O)c(=O)n2Cc1ccc(Cl)c(Cl)c1             %   79
3  O=C(O)Cn1c(=O)c2cc(Cl)ccc2n(Cc2ccc(Br)cc2F)c1=S             %   70
4  O=C(O)Cn1c(=O)c2cc(Cl)ccc2n(Cc2ccc(Br)cc2F)c1=O             %   80

### Prompt Missing value: inhibition, Aldo-keto reductase family 1 member B1 (Bos taurus), entry O=C(O)Cn1c(=O)n(Cc2ccc(Cl)c(Cl)c2)c(=O)c2c3c(sc21)CCCC3 . Fill in?
### Response 89

### Prompt Requested read-out inhibition, target or system Aldo-keto reductase family 1 member B1 (Bos taurus), entry O=C(O)CN1Cc2ccccc2N(Cc2ccc(Cl)c(Cl)c2)C1=O
### Response 68

### Prompt For the record O=C(O)CN1C(=O)c2cc(Cl)ccc2N(Cc2ccc(Br)cc2F)[S+]1[O-] (centres undefined) , what value of inhibition is listed for Aldo-keto reductase family 1 member B1 (Bos taurus)?
### Response 21

### Prompt Return inhibition measured with Aldo-keto reductase family 1 member B1 (Bos taurus) given this compound: O=C(O)Cn1c(=O)n(Cc2ccc(Cl)c(Cl)c2)c(=S)c2cc(Cl)ccc21
### Response 89

### Prompt Query for Aldo-keto reductase family 1 member B1 (Bos taurus): what inhibition does the record show for O=C(O)Cn1c(=O)c2cc(I)ccc2n(Cc2ccc(Br)cc2F)c1=O ?
### Response 83

### Prompt Checklist item: inhibition tested on Aldo-keto reductase family 1 member B1 (Bos taurus), entry O=C(O)Cn1c(=O)c2sccc2n(Cc2ccc(Br)cc2F)c1=O , value?
### Response 68

### Prompt Given the entry CCc1nc2ccc(Br)cc2c(=O)n1CC(=O)O , what inhibition was observed with Aldo-keto reductase family 1 member B1 (Bos taurus)?
### Response 13

### Prompt What is its inhibition for Aldo-keto reductase family 1 member B1 (Bos taurus)? Entry: Cc1c(-c2ccccc2)n(Cc2ccc(Cl)c(Cl)c2)c(=O)n(CC(=O)O)c1=O
### Response 22

### Prompt Param readout= inhibition; system= Aldo-keto reductase family 1 member B1 (Bos taurus); entry= O=C(O)Cn1c(=O)c2cccc(F)c2n(Cc2ccc(Br)cc2F)c1=O ; returns value.
### Response 77

### Prompt Tell me reported inhibition for Cc1ccc2c(c1)c(=O)n(CC(=O)O)c(=O)n2Cc1ccc(Cl)c(Cl)c1 , tested with Aldo-keto reductase family 1 member B1 (Bos taurus).
### Response 80

### Prompt API: value(readout= inhibition, system= Aldo-keto reductase family 1 member B1 (Bos taurus), query= O=C(O)Cn1c(=O)c2ccccc2n(Cc2ccc(Br)cc2F)c1=O )
### Response 71

### Prompt GET /values?readout=inhibition&system=Aldo-keto reductase family 1 member B1 (Bos taurus)&item= O=C(O)Cn1c(=O)c2c(Cl)cccc2n(Cc2ccc(Br)cc2F)c1=O
### Response 70

### Prompt Requested read-out inhibition, target or system Aldo-keto reductase family 1 member B1 (Bos taurus), entry O=C(O)Cn1c(=O)n(Cc2ccc(Cl)c(Cl)c2)c(=O)c2cc(Cl)ccc21
### Response 88

### Prompt Identify the measured inhibition of COc1ccc(Cn2c(=O)n(CC(=O)O)c(=O)c3cc(Br)ccc32)cc1 for Aldo-keto reductase family 1 member B1 (Bos taurus).
### Response 31

* * *

# test-target: Aldo-keto reductase family 1 member B1 (Bos taurus) (UniProt P16116)
# assay-notes: In vitro inhibition of aldose reductase in partially purified bovine lens preparation at a concentration of 10e -5M.
# setup-conditions: in the assay text read “10e -6M” for “10e -5M”
Catalogue of compounds with associated inhibition
Form entry: enter the amount, then its unit.

// known answers, use as guide
> print(dat)
                              record.smiles                               test.target  val
1      Cn1c(=O)n(CC(=O)O)c(=O)c2cc(Cl)ccc21  Aldo-keto reductase family 1 member B1 (Bos taurus) (UniProt P16116)  60%
2  O=C(O)Cn1c(=O)c2cc(Br)ccc2n(CCc2ccccc2)c1=O  Aldo-keto reductase family 1 member B1 (Bos taurus) (UniProt P16116)  34%
3    O=C(O)Cn1c(=O)c2ccccc2n(-c2ccccc2)c1=O  Aldo-keto reductase family 1 member B1 (Bos taurus) (UniProt P16116)  45%

Now for a further compound.
### Prompt Recorded inhibition of O=C(O)Cn1c(=O)[nH]c2ccc(Br)cc2c1=O , please.
### Response 64%

* * *

// reported inhibition for each item listed
# test-target: Aldo-keto reductase family 1 member B1 (Bos taurus) (UniProt P16116)
# assay-notes: In vitro inhibition of aldose reductase in partially purified bovine lens preparation at a concentration of 4*10e -8M.
Write it as a number; the unit % goes unstated.

> print(dat)
                              record.smiles  measurement.label  val
1  COc1ccc2c(c1)c(=O)n(CC(=O)O)c(=O)n2Cc1ccc(Cl)c(Cl)c1         inhibition   49
2  Cc1sc2c(c1C)c(=O)n(CC(=O)O)c(=O)n2Cc1ccc(Cl)c(Cl)c1         inhibition   51

Proceeding to the next compound to report its inhibition.
### Prompt Suppose we examine the compound O=C(O)Cn1c(=O)c2cc(Cl)ccc2n(Cc2ccc(Br)cc2F)c1=O ; what inhibition value has been reported?
### Response 51
